Collected inhibition values appear next to each entry.
biological target: 72 kDa type IV collagenase (Homo sapiens); assay: Inhibition of human recombinant MMP2 using MOCAc-Pro-Leu-Gly-Leu-A2pr(Dnp)-Ala-Arg- NH2 as substrate at 20 ug/ml preincubated for 10 mins measured after 3 hrs by fluorescence assay
Sequence (P08253 110-660 limits assumed): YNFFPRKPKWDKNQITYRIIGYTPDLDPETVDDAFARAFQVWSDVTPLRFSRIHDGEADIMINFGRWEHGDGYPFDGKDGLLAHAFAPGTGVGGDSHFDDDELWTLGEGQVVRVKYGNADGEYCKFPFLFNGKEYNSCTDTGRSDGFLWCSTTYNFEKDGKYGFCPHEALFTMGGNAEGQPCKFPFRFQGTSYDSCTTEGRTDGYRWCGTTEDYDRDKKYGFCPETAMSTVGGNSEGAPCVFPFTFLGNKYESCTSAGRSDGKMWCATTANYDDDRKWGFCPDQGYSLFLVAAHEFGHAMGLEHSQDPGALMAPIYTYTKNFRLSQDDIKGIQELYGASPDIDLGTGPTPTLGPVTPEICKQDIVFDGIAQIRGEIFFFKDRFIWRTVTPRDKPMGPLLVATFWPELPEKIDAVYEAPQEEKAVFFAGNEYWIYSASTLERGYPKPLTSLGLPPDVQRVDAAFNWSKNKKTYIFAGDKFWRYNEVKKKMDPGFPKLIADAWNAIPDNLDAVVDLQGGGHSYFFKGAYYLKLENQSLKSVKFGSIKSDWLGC
Hi! Could you send only the number? It should be in %, unit omitted.

What value of measured inhibition is listed for Nc1nc2ccnc(-c3c[nH]c4ccccc34)c2[nH]1 ? 31

What value of measured inhibition is listed for Nc1nc2c(-c3cnc4ccccc4c3)nccc2[nH]1 ? 11

What value of measured inhibition is listed for Nc1nc2c(-c3cccnc3)nccc2[nH]1 ? 5

What value of measured inhibition is listed for Nc1nc2c(-c3ccccn3)nccc2[nH]1 ? 22

Lab note: next compound to report on.
What value of measured inhibition is listed for Nc1nc2c(-c3csc4ccccc34)nccc2[nH]1 ? 21

These data points were gathered from ChEMBL document CHEMBL2150858.
